# Tested on: HCT-116
# protocol.summary: Antiproliferative activity against human HCT116 cells assessed as reduction in cell viability incubated for 72 hrs by MTT assay
# Assay type: functional, cell-based
# test.conditions: HCT-116, 72 h
We begin with a simple list: items and their reported IC50.

Field: example entries. Status: answers known.
                                smiles_data  value_reported
0  COc1ncc(-c2ccc3c(c2)NC(=O)CO3)cc1NS(=O)(=O)c1ccc(F)cc1         24.9 µM
1  COc1ccc(N2C(=O)COc3ccc(-c4cccc(NS(=O)(=O)c5ccc(F)cc5)c4)cc32)cc1         28.3 µM
2  COc1ccc(N2C(=O)COc3ccc(-c4cnc5ccccc5c4)cc32)cc1         > 40 µM
3  COc1ncc(-c2ccc3c(c2)N(c2ccc(Cl)cc2)C(=O)CO3)cc1NS(=O)(=O)c1ccc(F)cc1         19.2 µM
4  O=C1COc2ccc(-c3cccc(NS(=O)(=O)c4ccc(F)cc4)c3)cc2N1         > 40 µM

q: Can you share its IC50? I mean this compound: COc1cccc(N2C(=O)COc3ccc(-c4cnc(Cl)c(NS(=O)(=O)c5ccc(F)cc5)c4)cc32)c1
a: > 40 µM

q: Return reported IC50; argument: COc1ccc(N2C(=O)COc3ccc(-c4cnc(Cl)c(NS(=O)(=O)c5ccc(F)cc5)c4)cc32)cc1
a: 30.1 µM

* * *

Some compounds, each annotated with its measured log10(IC50).
# measurement.target: Serine/threonine-protein kinase mTOR (Homo sapiens)
# protocol.summary: Inhibition of recombinant human N-terminal FLAG-tagged mTOR (1362 to end residues) using Ulight-4E-BP1 as substrate incubated for 30 mins by fluorescence assay
Record value = log10 of IC50 given in nM.

In [3]: df
Out[3]:
                                smiles_data                        measurement_target  quantity_kind  value_reported
0  O=C1COc2ccc(-c3cnc(Cl)c(NS(=O)(=O)c4ccc(F)cc4)c3)cc2N1C1CCCCC1  Serine/threonine-protein kinase mTOR (Homo sapiens)    log10(IC50)            2.46
1  O=C1COc2ccc(-c3cnc(Cl)c(NS(=O)(=O)c4ccc(F)cc4)c3)cc2N1  Serine/threonine-protein kinase mTOR (Homo sapiens)    log10(IC50)            2.52
2  COc1ncc(-c2ccc3c(c2)N(c2ccc(F)cc2)C(=O)CO3)cc1NS(=O)(=O)c1ccc(F)cc1  Serine/threonine-protein kinase mTOR (Homo sapiens)    log10(IC50)            1.54
3  O=C1COc2ccc(-c3cnc(Cl)c(NS(=O)(=O)c4ccc(F)cc4)c3)cc2N1C1CC1  Serine/threonine-protein kinase mTOR (Homo sapiens)    log10(IC50)            2.43
4  COc1ncc(-c2ccc3c(c2)N(c2ccc(C)cc2)C(=O)CO3)cc1NS(=O)(=O)c1ccc(F)cc1  Serine/threonine-protein kinase mTOR (Homo sapiens)    log10(IC50)            1.14

q: Requested read-out: log10(IC50). Entry: O=C1COc2ccc(-c3cnc(Cl)c(NS(=O)(=O)c4ccc(F)cc4)c3)cc2N1c1ccc(Cl)cc1
a: 1.15

q: Field request: log10(IC50) | item: COc1ccc(N2C(=O)COc3ccc(-c4cnc(OC)c(NS(=O)(=O)c5ccc(F)cc5)c4)cc32)cc1
a: 1.14
